B1: CLCN6 (parent)
chain: TGLVGLFVDFFVRLFTQLKFGVVQ

- Variants of: B1
- METHOD SUMMARY: protein stability index of a GFP-peptide fusion (GPS, HEK-293T) (PSI 1-6); higher = more stable;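 further: lentivirally expressed fusions sorted by FACS into six bins by GFP to DsRed ratio, PSI derived from sequencing read proportions per bin multiplied by bin number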
- CONDITION: c terminus: a fixed tail appended
Would you mind labelling by protein stability index? At or over 2 is Satisfied, under is Not satisfied.

SEQUENCE TEXT	ASSIGNED CLASS
TGLVGLFVDFFVRHFTQLKFGVVQ	Not satisfied

Problem: Reported protein stability index reaches at least 2 for `TGLVWLFVDFFVRLFTQLKFGVVQ` ?
Solution: Not satisfied

Problem: Reported protein stability index reaches at least 2 for `TRLVGLFVDFFVRLFTQLKFGVVQ` ?
Solution: Satisfied

Problem: Reported protein stability index reaches at least 2 for `TGLNGLFVDFFVRLFTQLKFGVVQ` ?
Solution: Satisfied

Problem: Reported protein stability index reaches at least 2 for `TGLVGLFVDFFGRLFTQLKFGVVQ` ?
Solution: Satisfied

Problem: Reported protein stability index reaches at least 2 for `TGLRGLFVDFFVRLFTQLKFGVVQ` ?
Solution: Satisfied

Problem: Reported protein stability index reaches at least 2 for `TGLVGLFVDFFDRLFTQLKFGVVQ` ?
Solution: Not satisfied
